Values were extracted from PubChem BioAssay (NCI).

- System: LOX IMVI melanoma
- assay.info: NCI tumour cell line growth inhibition, 48 h
assay.metric: TGI

Below are worked cases with known answers.
>  <compound>
CC1CC(c2ccc(Cl)c(Cl)c2)=Nc2ccccc2S1 (centres undefined)

>  <TGI>
> 100 µM

$$$$
>  <compound>
c1ccc2c3nnc(c2c1)SCCCSc1nnc(c2ccccc12)SCCCS3

>  <TGI>
> 100 µM

$$$$
>  <compound>
C[C@H](c1ccccc1)N(CCC(=O)O)C(=O)CCN(C(=O)CCN(C(=O)CCN[C@H](C)c1ccccc1)[C@H](C)c1ccccc1)[C@H](C)c1ccccc1

>  <TGI>
> 100 µM

$$$$

// query Specify the recorded TGI for COC(=O)c1ccccc1C1=C([N+](=O)[O-])C(c2cccc(Br)c2)C(C#N)=C(N)O1 (centres undefined) , system: LOX IMVI melanoma.
// result 38.1 µM
